Test system: laccase
Assay: Laccase amperometric biosensor: IC50 and type of inhibition
Format: biochemical
Conditions: dopamine calibration 0-140 mM after inhibitor exposure; n=4 biosensors
Assign Yes to entries whose VMAX, substrate + inhibitor, LAC meets or exceeds 100 nA; assign No to the rest.

Exercise: Given COc1cc(/C=C/C(=O)c2cc(OC)c(OC)c(-c3cc(C(=O)/C=C/c4ccc(O)c(OC)c4)cc(OC)c3OC)c2)ccc1O [Compound 14] , state whether its VMAX, substrate + inhibitor, LAC is at least 100 nA.
Key: Yes

Exercise: Please do the same for CC(=O)CCc1ccc(O)c(O)c1 [Compound 9] as well.
Key: No

Exercise: Please do the same for COc1cc(C=CC(C)=O)ccc1O [Compound 8] as well.
Key: No

Exercise: Please do the same for COc1cc(/C=C/C(=O)c2ccc(OC)c(OC)c2)ccc1O [Compound 11] as well.
Key: No

Exercise: Please do the same for OC[C@H]1O[C@@H](Oc2ccc(-c3ccc(O)c(Br)c3)cc2Br)[C@H](O)[C@@H](O)[C@@H]1O [Compound 19] as well.
Key: Yes

Exercise: Please do the same for CC(C)=CCCC(C)(O)/C=C/c1cc(-c2ccc(O)c(/C=C/C(C)(O)CCC=C(C)C)c2)ccc1O (centres unmarked) [Compound 20] as well.
Key: Yes

Exercise: Please do the same for COc1ccc(O)c(C(=O)/C=C/c2cc(OC)c(OC)c(-c3cc(/C=C/C(=O)c4cc(OC)ccc4O)cc(OC)c3OC)c2)c1 [Compound 16] as well.
Key: Yes

Exercise: Please do the same for COc1cc(C(=O)/C=C/c2cc(OC)c(OC)c(-c3cc(/C=C/C(=O)c4ccc(O)c(OC)c4)cc(OC)c3OC)c2)ccc1O [Compound 15] as well.
Key: No

Exercise: Please do the same for CCOC(=O)/C=C/c1cc(OC)c(O)c(-c2cc(/C=C/C(=O)OCC)cc(OC)c2O)c1 [Compound 17] as well.
Key: No

Exercise: Please do the same for CC(=O)C=Cc1ccc(O)cc1O [Compound 7, reference compound] as well.
Key: Yes

Exercise: Please do the same for COc1cc(C(=O)/C=C/c2ccc(OC)c(OC)c2)ccc1O [Compound 12] as well.
Key: No

Exercise: Please do the same for COc1cc(/C=C/C(=O)c2ccccc2)ccc1O [Compound 10] as well.
Key: No

Exercise: Please do the same for COc1cc(/C=C/C(=O)C[C@@H]2O[C@H](CO)[C@@H](O)[C@H](O)[C@H]2O)ccc1O [Compound 13] as well.
Key: Yes

###

Tested on: PC12 cells
Experiment: Viability of PC12 cells (MTT assay)
Assay type: cell-based, rat
Conditions: cell viability < 80%; screening from 1 to 40 μM, 24 h
reported endpoint: Toxic Concentration

Answered examples (5):
molecule	Toxic Concentration
COc1cc(/C=C/C(=O)C[C@@H]2O[C@H](CO)[C@@H](O)[C@H](O)[C@H]2O)ccc1O	>20 µM
CC(=O)CCc1ccc(O)c(O)c1	>10 µM
COc1cc(/C=C/C(=O)c2ccccc2)ccc1O	>20 µM
OC[C@H]1O[C@@H](Oc2ccc(-c3ccc(O)c(Br)c3)cc2Br)[C@H](O)[C@@H](O)[C@@H]1O	none
COc1ccc(O)c(C(=O)/C=C/c2cc(OC)c(OC)c(-c3cc(/C=C/C(=O)c4cc(OC)ccc4O)cc(OC)c3OC)c2)c1	>5 µM

Exercise: Give its Toxic Concentration value. Item: OC[C@H]1O[C@@H](Oc2ccc(-c3ccc(O)cc3)cc2)[C@H](O)[C@@H](O)[C@@H]1O
Key: none

Exercise: Please do the same for CC(=O)C=Cc1ccc(O)cc1O [Compound 7, reference compound] as well.
Key: >10 µM

Exercise: Please do the same for COc1cc(C(=O)/C=C/c2ccc(OC)c(OC)c2)ccc1O as well.
Key: >1 µM
